# measured_on: human recombinant mGluR5 (Homo sapiens)
# Construct: expressed in transfected cells; hygromycin and geneticin selection
# experiment_summary: positive modulation of mGluR5, calcium based FLIPR assay
# experimental_parameters: HEK 293 cell line expressing human recombinant mGluR5; Ca2+ peak height after glutamate at approximately 5% basal stimulation; nonlinear regression
EC50 by entry:
Note: unit nM is implicit; provide only the numeric part.

[[record]]
compound = "COc1nc(C(=O)N2CCN(C(=O)c3ncn(-c4ccc(C)c(F)c4)n3)C(C)(C)C2)cc2ccccc12"
experimental_readout = "EC50"
value_unit = "nM"
test_result = 441

[[record]]
compound = "COc1cc(OC)cc(C(=O)N2CCN(C(=O)c3ncn(-c4cccc(Cl)c4)n3)C(C)C2)c1 (stereo not drawn)"
experimental_readout = "EC50"
value_unit = "nM"
test_result = 476

[[record]]
compound = "CCC1CN(C(=O)c2ncn(-c3cccc(F)c3)n2)CCN1C(=O)c1cc(Br)c(Br)o1 (stereo not drawn)"
experimental_readout = "EC50"
value_unit = "nM"
test_result = 153


query: # query: EC50 | item Cc1cccc(-n2cnc(C(=O)N3CCN(C(=O)c4cc(Br)c(Br)o4)CC3(C)C)n2)c1 | system: human recombinant mGluR5 (Homo sapiens)
result: 53

query: Same again, this time with Cc1c(C(=O)N2CCN(C(=O)c3ncn(-c4ccccc4)n3)C(C)(C)C2)n(C)c2ccccc12
result: 142

* * *

# measured_on: human recombinant mGluR5 (Homo sapiens, UniProt P41594)
# Construct: expressed in transfected cells; hygromycin and geneticin selection
# Sequence (P41594 21-1212): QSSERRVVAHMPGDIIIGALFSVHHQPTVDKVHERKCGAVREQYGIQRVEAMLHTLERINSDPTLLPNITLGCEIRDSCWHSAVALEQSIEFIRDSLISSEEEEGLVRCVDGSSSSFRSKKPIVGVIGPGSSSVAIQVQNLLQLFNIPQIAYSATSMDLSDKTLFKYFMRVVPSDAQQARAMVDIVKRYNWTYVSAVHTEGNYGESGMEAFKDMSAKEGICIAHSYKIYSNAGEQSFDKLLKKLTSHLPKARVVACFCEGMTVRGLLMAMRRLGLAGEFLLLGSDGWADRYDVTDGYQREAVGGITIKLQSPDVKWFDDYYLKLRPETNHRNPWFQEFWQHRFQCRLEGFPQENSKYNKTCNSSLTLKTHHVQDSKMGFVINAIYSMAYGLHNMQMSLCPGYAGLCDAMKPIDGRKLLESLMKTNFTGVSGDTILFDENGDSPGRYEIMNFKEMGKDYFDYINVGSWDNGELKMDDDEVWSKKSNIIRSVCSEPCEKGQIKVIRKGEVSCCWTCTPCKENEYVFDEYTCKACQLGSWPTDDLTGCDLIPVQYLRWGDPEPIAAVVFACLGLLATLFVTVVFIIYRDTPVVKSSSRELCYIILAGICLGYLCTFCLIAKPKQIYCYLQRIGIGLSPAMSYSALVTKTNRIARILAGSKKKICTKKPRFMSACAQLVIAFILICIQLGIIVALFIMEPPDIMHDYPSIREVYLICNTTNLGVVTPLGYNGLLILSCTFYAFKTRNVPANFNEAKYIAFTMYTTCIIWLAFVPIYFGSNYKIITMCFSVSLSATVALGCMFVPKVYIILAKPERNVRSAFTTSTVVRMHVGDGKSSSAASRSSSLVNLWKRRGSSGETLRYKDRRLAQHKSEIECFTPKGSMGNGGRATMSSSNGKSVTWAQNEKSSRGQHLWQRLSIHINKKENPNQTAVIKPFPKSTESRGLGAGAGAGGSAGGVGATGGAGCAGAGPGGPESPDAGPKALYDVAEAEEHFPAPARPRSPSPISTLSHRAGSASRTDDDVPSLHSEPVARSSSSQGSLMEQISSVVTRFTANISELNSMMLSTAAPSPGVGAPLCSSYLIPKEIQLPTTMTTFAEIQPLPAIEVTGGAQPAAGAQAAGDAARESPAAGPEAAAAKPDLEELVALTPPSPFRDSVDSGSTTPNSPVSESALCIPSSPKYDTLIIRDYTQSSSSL
# experiment_summary: positive modulation of mGluR5, calcium based FLIPR assay
# experimental_parameters: HEK 293 cell line expressing human recombinant mGluR5; Ca2+ peak height after glutamate at approximately 5% basal stimulation; nonlinear regression
pEC50 by entry:
Quick note: pEC50 values are minus log10 of concentrations in mol/L.

As a guide, the following entries are already answered.
[[record]]
smiles_notation = "COc1cccc(C(=O)N2CCN(C(=O)c3nnn(-c4cccc(Cl)c4)n3)C(C)(C)C2)n1"
experimental_readout = "pEC50"
test_result = 7.16

[[record]]
smiles_notation = "CC1(C)CN(C(=O)c2cc3ccccc3c(OCC3CC3)n2)CCN1C(=O)c1ncn(-c2ccccc2)n1"
experimental_readout = "pEC50"
test_result = 7.31


query: Bench note: what pEC50 did Cc1cccc(C(=O)N2CCN(C(=O)c3ncn(-c4ccccc4)n3)C(C)(C)C2)c1 show?
result: 6.68

* * *

# measured_on: human recombinant mGluR5 (Homo sapiens, UniProt P41594)
# Construct: hygromycin and geneticin selection
# experiment_summary: positive modulation of mGluR5, calcium based FLIPR assay
# experimental_parameters: HEK 293 cell line expressing human recombinant mGluR5; Ca2+ peak height after glutamate at approximately 5% basal stimulation; nonlinear regression
experimental_readout: pEC50
Quick note: pEC50 values are minus log10 of concentrations in mol/L.

query: Bench note: what pEC50 did CC1(C)CN(C(=O)c2cc(Cl)cc(Cl)c2)CCN1C(=O)c1ncn(-c2ccccc2)n1 show?
result: 7.00

query: Same again, this time with Cc1ccc(Cl)cc1C(=O)N1CCN(C(=O)c2ncn(-c3ccccc3)n2)C(C)(C)C1
result: 6.80

query: Same again, this time with CC1(C)CN(C(=O)c2cccc(-c3cccc(C#N)c3)c2)CCN1C(=O)c1ncn(-c2cccc(Cl)c2)n1
result: 7.19

* * *

# measured_on: human recombinant mGluR5 (Homo sapiens, UniProt P41594)
# Construct: hygromycin and geneticin selection
# experiment_summary: positive modulation of mGluR5, calcium based FLIPR assay
# experimental_parameters: HEK 293 cell line expressing human recombinant mGluR5; Ca2+ peak height after glutamate at approximately 5% basal stimulation; nonlinear regression
experimental_readout: pEC50
Quick note: pEC50 values are minus log10 of concentrations in mol/L.

As a guide, the following entries are already answered.
[[record]]
compound = "Cc1c(C(=O)N2CCN(C(=O)c3ncn(-c4cccc(F)c4)n3)C(C)(C)C2)n(C)c2ccccc12 [Example 6]"
experimental_readout = "pEC50"
test_result = 6.71

[[record]]
compound = "Cc1c(C(=O)N2CCN(C(=O)c3ncn(-c4cccc(Cl)c4)n3)CC2C)oc2ccccc12 (stereo not shown) [Example 228]"
experimental_readout = "pEC50"
test_result = 6.39

[[record]]
compound = "COc1ccc2oc(C)c(C(=O)N3CCN(C(=O)c4ncn(-c5ccccc5)n4)C(C)C3)c2c1 (stereo not shown) [Example 291]"
experimental_readout = "pEC50"
test_result = 7.33


Okay, next one:
query: # query: pEC50 | item CC1CN(C(=O)c2cc3c(Cl)cccc3s2)CCN1C(=O)c1ncn(-c2cccc(Cl)c2)n1 (stereo not shown) [Example 268] | system: human recombinant mGluR5 (Homo sapiens, UniProt P41594)
result: 6.49

Origin of measurements: patent US8883789B2
